ASSAY_SYSTEM: T1, SA2 (STAG2), full length (human, UniProt Q8N3U4 1-1231)
T1 sequence: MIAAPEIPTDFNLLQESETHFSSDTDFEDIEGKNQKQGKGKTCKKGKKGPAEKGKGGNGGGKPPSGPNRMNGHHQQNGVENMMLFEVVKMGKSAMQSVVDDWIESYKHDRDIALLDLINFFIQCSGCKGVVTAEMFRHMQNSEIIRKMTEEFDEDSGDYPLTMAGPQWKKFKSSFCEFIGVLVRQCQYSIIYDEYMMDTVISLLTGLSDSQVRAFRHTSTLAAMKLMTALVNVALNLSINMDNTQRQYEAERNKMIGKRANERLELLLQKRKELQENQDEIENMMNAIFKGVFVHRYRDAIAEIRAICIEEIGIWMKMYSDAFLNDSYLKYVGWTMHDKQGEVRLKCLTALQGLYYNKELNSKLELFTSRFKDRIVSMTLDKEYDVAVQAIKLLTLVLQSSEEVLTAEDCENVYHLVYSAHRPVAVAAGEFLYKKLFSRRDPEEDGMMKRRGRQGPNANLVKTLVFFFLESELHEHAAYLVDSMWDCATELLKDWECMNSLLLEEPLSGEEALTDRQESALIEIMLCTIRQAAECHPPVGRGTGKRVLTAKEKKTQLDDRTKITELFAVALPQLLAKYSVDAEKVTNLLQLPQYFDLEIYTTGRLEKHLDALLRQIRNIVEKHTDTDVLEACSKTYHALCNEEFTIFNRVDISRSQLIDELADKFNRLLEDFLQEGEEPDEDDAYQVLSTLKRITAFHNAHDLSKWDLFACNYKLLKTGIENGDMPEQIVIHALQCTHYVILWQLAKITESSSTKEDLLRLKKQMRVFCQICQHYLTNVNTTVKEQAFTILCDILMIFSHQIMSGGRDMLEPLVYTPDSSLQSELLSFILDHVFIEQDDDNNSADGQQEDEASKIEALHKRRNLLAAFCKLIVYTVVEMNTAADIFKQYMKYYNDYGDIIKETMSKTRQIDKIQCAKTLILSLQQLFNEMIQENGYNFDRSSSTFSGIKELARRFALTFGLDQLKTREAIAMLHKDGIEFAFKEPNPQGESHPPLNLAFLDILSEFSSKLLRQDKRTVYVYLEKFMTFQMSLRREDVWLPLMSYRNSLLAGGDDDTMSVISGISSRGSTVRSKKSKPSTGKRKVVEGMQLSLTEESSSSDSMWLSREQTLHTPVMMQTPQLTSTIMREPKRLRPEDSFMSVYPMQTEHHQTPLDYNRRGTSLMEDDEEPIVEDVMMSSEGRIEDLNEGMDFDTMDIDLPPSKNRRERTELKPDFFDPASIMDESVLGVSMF
PROTOCOL_DESCRIPTION: fluorescence anisotropy; Anisotropy: 20 mM Hepes pH 7.5, 0.1 mM MgCl2, 0.5 mM DTT, 100 mM KCl, 1 nM DNA; AFM: 20 mM Hepes pH 7.5, 100 mM KCl, 0.1 mM MgCl2, room temperature, 20 min
CONDITION_DESCRIPTION: protein: recombinant; tags: 6xHis; label: 5' Alexa 488
TEST_READOUT: Kd (nM)
The response must be a number in nM with no trailing unit.

Asked: Find the recorded Kd belonging to TGTCGCATAGTGTAGTCGGTCTTGTTCGGTCATAGCTCATCGTGG (ssDNA) [ss45 (oligo 1)] and report it.
Given back: 118
